These measurements were taken from ChEMBL document CHEMBL1126582.

- target: Human immunodeficiency virus type 1 protease (Human immunodeficiency virus 1)
- experiment: Inhibition of purified recombinant HIV-1 protease in a fluorogenic assay
pIC50: −log10 of the molar value.
Recorded pIC50 for the following compounds

// worked examples, pIC50 included
# structure_smiles_string, target, outcome_measure, measured_result
records = [
    ("CC(C)[C@H](NC(=O)N(C)Cc1ccccn1)C(=O)N[C@@H](Cc1ccccc1)[C@H](O)[C@@H](O)[C@H](Cc1ccccc1)NC(=O)[C@H](NC(=O)N(C)Cc1cccnc1)C(C)C", "Human immunodeficiency virus type 1 protease (Human immunodeficiency virus 1)", "pIC50", "> 9.00"),
    ("CC(C)[C@H](NC(=O)c1cc2ccccc2[nH]1)C(=O)N[C@@H](Cc1ccccc1)[C@@H](O)[C@@H](O)[C@H](Cc1ccccc1)NC(=O)[C@H](NC(=O)c1cc2ccccc2[nH]1)C(C)C", "Human immunodeficiency virus type 1 protease (Human immunodeficiency virus 1)", "pIC50", "> 9.00"),
]

Moving on to the next compound.
**Q:** For CC(C)[C@H](NC(=O)OCc1ccccn1)C(=O)N[C@@H](Cc1ccccc1)[C@@H](O)[C@@H](O)[C@H](Cc1ccccc1)NC(=O)[C@H](NC(=O)OCc1ccccn1)C(C)C , what is its reported pIC50?
**A:** > 9.00

* * *

- target: Human immunodeficiency virus type 1 protease (Human immunodeficiency virus 1, UniProt Q72874)
- experiment: Inhibition of purified recombinant HIV-1 protease in a fluorogenic assay
pIC50: −log10 of the molar value.
Here the recorded pIC50 is given for each entry.

# structure_smiles_string, pIC50
measured = [
    ("CC(C)[C@H](NC(=O)OCc1ccccn1)C(=O)N[C@@H](Cc1ccccc1)[C@@H](O)[C@H](O)[C@H](Cc1ccccc1)NC(=O)[C@H](NC(=O)OCc1ccccn1)C(C)C", "> 9.00"),
    ("CC(C)[C@H](NC(=O)OCc1ccccc1)C(=O)N[C@@H](Cc1ccccc1)[C@@H](O)[C@@H](O)[C@H](Cc1ccccc1)NC(=O)[C@H](NC(=O)OCc1ccccc1)C(C)C", "> 9.00"),
]

**Q:** So what's the measured pIC50 for this one? CC(C)[C@H](NS(=O)(=O)CCc1ccccn1)C(=O)N[C@@H](Cc1ccccc1)[C@@H](O)[C@H](O)[C@H](Cc1ccccc1)NC(=O)[C@H](NS(=O)(=O)CCc1ccccn1)C(C)C
**A:** > 9.00

* * *

- target: Human immunodeficiency virus type 1 protease (Human immunodeficiency virus 1)
- experiment: Inhibition of purified recombinant HIV-1 protease in a fluorogenic assay
outcome_measure: IC50

# compound, IC50
data = [
    ("CC(C)[C@H](NC(=O)N(C)Cc1nccs1)C(=O)N[C@@H](Cc1ccccc1)[C@H](O)[C@H](O)[C@H](Cc1ccccc1)NC(=O)[C@H](NC(=O)N(C)Cc1nccs1)C(C)C", "< 1 nM"),
    ("CC(C)[C@H](NC(=O)N(C)Cc1nccs1)C(=O)N[C@@H](Cc1ccccc1)[C@H](O)[C@@H](O)[C@H](Cc1ccccc1)NC(=O)[C@H](NC(=O)N(C)Cc1csc(N)n1)C(C)C", "< 1 nM"),
    ("CC(C)[C@H](NC(=O)N(C)Cc1nccs1)C(=O)N[C@@H](Cc1ccccc1)[C@@H](O)[C@H](O)[C@H](Cc1ccccc1)NC(=O)[C@H](NC(=O)N(C)Cc1nccs1)C(C)C", "< 1 nM"),
    ("CC(C)[C@H](NC(=O)OCc1cccnc1)C(=O)N[C@@H](Cc1ccccc1)[C@H](O)[C@H](O)[C@H](Cc1ccccc1)NC(=O)[C@H](NC(=O)OCc1cccnc1)C(C)C", "< 1 nM"),
    ("CC(C)[C@H](NC(=O)N(C)Cc1ccccn1)C(=O)N[C@@H](Cc1ccccc1)[C@H](O)[C@@H](O)[C@H](Cc1ccccc1)NC(=O)[C@H](NC(=O)N(C)Cc1nccs1)C(C)C", "< 1 nM"),
]

Now turn to the next compound.
**Q:** Given CC(C)[C@H](NC(=O)OCc1ccccn1)C(=O)N[C@@H](Cc1ccccc1)C(O)[C@H](Cc1ccccc1)NC(=O)[C@H](NC(=O)OCc1ccccn1)C(C)C (stereo partly drawn) , state its recorded IC50.
**A:** 4.8 nM
